- System: Plasmodium berghei
- ASSAY PROTOCOL: Screen against P. berghei liver stage (PbLuc), transformed with Luciferase, at 10uM
- Type: functional, HepG2
- CONDITION NOTES: tested at 10 uM
The whole screen tested about 69,000 compounds, of which about 8,600 (12%) showed an effect of 50% or more. Shown is part of a subset that was picked to be rich in strong results.
MEASURE: INHIBITION
Please state the number and follow it with the unit.

Per the record, CS(=O)(=O)NCc1nnc2n1CCN(CC1CC1)C2 has INHIBITION of 39.2%

Given item CN(C)C(=O)[C@H]1C[C@H]2[C@H](CCN2Cc2ccc3c(c2)OCO3)O1 , the value recorded as its INHIBITION is 18.5%

The molecule identified as Cn1ccnc1CN1CCC2(CC1)CCN(c1cncnc1)C2=O registered its INHIBITION at 8.93%

Measured INHIBITION of O=C(N1CCOCC1)N1CCC2(CC1)CN(c1ccccn1)CCO2 : 67.2%

The molecule listed as O=C1COC2(CCN(Cc3cccs3)CC2)CN1c1ccccc1 shows INHIBITION equal to 26.8%

// recorded INHIBITION for CSCC(C)(O)CNS(=O)(=O)c1cccc(Cl)c1 (centres undefined) : -33.5%

// recorded INHIBITION for O=C(CC1CC1)N1CCC2(CC1)CN(c1ncccn1)CCO2 : 50%

Recorded result, O=S(=O)(C1CC1)N1CCC2(CCCN(c3ncccn3)C2)C1 (centres undefined) , INHIBITION: 19.6%

// recorded INHIBITION for O=C(c1cnc(-c2ccco2)s1)N1CCOc2ncccc21 : -40.6%

Record summary for O=C1COC2(CCN(Cc3cccs3)CC2)CN1c1cccnc1 : reported INHIBITION = 10.7%

So, CC(=O)N1CCC2(CC1)CN(CC(C)C)CC21CCNC1=O (centres undefined) ? Its INHIBITION was -33.1%

Query CN(C)CCN1CCC2(CC1)CN(Cc1cccnc1)C(=O)CO2 yields INHIBITION of 41.2%

Short answer for O=C1CCCN1CC1CN(C(=O)C2CCOCC2)Cc2nccn2C1 (centres undefined) : INHIBITION was 0.542%

Quick note, INHIBITION for Cc1cnn(CC2CCCCN2C(=O)c2nccnc2N)c1 (centres undefined) landed at -19.9%

Record O=C1CCCN1CC1CN(CC2CCOCC2)Cc2nccn2C1 (centres undefined) , field INHIBITION: 57.4%

Lookup result for Cn1ccnc1CN1CCC2(CC1)CN(c1ccccc1)C(=O)CO2 ; measured INHIBITION: -4.88%

GET /value?item= Cn1ccnc1CN1CCC2(CC1)CN(Cc1cccnc1)C(=O)CO2 &field=INHIBITION returns 57.4%

INHIBITION for O=C1COC2(CCN(Cc3cccs3)CC2)CN1c1cncnc1 is 67%

Lookup result for O=C(NCCS(=O)(=O)N1CCN(c2ncccn2)CC1)c1ccccc1 ; measured INHIBITION: -101%

Field INHIBITION (entry CCc1ncc(CN(C)C2CCN(C(C)C)CC2)cn1 ) reads -27.1%

Kindly note the recorded INHIBITION for NCCC(=O)N1CCC2(CC1)CN(C(=O)Cc1cccc(Cl)c1)CCO2 , which is -4.76%

# molecule COCCn1ccc2c(C(=O)NCC3CCCO3)cccc21 (centres undefined) ; its INHIBITION = 23.7%

Record summary for Cn1ccnc1CN1CCC2(CC1)CN(Cc1ccccc1)C(=O)CO2 : reported INHIBITION = 33%

According to the records, this molecule Cn1ncc2c(=O)[nH]c(CN3CCCC3c3ccsc3)nc21 (centres undefined) displays INHIBITION of -19.6%

----------
- Tested on: Plasmodium berghei
- ASSAY PROTOCOL: Screen against P. berghei liver stage (PbLuc), transformed with Luciferase, at 10uM
- Format: functional, HepG2
- CONDITION NOTES: tested at 10 uM
Among all 69,000 compounds or so, about 8,600 (12%) showed an effect of 50% or more. This excerpt belongs to a sample that is enriched for strong results.
MEASURE: INHIBITION

Entry O=S(=O)(c1cc(F)ccc1N1CC(n2cccn2)C1)C(F)(F)F — recorded INHIBITION = 26.8%

Noted for CC(C)C(=O)NCc1ccc(N(C)C)cc1 : its INHIBITION reads -51.5%

Just so you know, measured INHIBITION for CN(Cc1ccncc1)C(=O)NCc1nnc2n1CCCCC2 came out at -4.94%

Reported INHIBITION of CC1CC2(CCN(C(=O)c3c[nH]cn3)CC2)c2ccccc21 (stereo not given) : 5.68%

Value of INHIBITION reported for the molecule CC(C)N(CC(N)=O)Cc1csc(-c2ncccn2)n1 is -16.8%

Entry CN(C)c1ccc(CNC2=NCCCN2)cc1 , INHIBITION reported as 75.8%

Record CN1CCOC(CNC(=O)Cc2coc(-c3ccccc3)n2)C1 (stereo not given) , field INHIBITION: -33.9%

Form: molecule = COCCN1CCCC2(CCN(c3nccnc3N(C)C)C2)C1=O (stereo not given) ; INHIBITION = -52.2%

Lab book: INHIBITION of CCOC1CCC2(CCN(C(=O)c3c[nH]cn3)CC2)c2ccccc21 (stereo not given) noted as 51.4%

Recorded result, COCCN1CCC2(CCCN(Cc3ccoc3)C2)C1=O (stereo not given) , INHIBITION: 8.74%

Record Cc1cc(CN(C)Cc2csc(-c3ccc(C(C)C)cc3)n2)no1 . Reported INHIBITION: 83.4%

Value of INHIBITION reported for the molecule Cc1cc(CN(C)C(=O)CC(C)C)no1 is -7.93%

Consider O=C1CCC2(CCCN(Cc3nnc(C4CC4)o3)C2)CN1CCO (stereo not given) . Its measured INHIBITION is 34.4%

The molecule listed as CCOc1ccccc1OC1CCN(C(=O)c2csnn2)CC1 shows INHIBITION equal to 15.3%

Just so you know, measured INHIBITION for Cc1noc(C)c1CN(C)Cc1csc(-c2ncccn2)n1 came out at 62.8%

Measured INHIBITION, COc1ccc(CN(C)Cc2c(C)noc2C)c(Cl)c1OC : 14.3%

Noted for CCOCc1ccc(CNC2=NCCCN2)cc1 : its INHIBITION reads 47.1%

Record COCCN1CCCC2(CCN(Cc3noc(C4CCCC4)n3)C2)C1=O (stereo not given) . Reported INHIBITION: 9.56%

Entry CCOC1CCC2(CCN(C(=O)c3csnn3)CC2)c2ccccc21 (stereo not given) — recorded INHIBITION = 56.4%

Input CCOc1ccc(-c2nc(CN(C)Cc3c(C)noc3C)cs2)cc1 . Output INHIBITION: 88.5%

Record CS(=O)(=O)N1CC2(CCN(C(=O)c3csnn3)CC2)c2ccccc21 , field INHIBITION: 13.7%

In plain terms, O=S(=O)(c1ccccc1N1CC(n2cccn2)C1)C(F)(F)F has a documented INHIBITION of 43.5%

Entry CN1CCN(C(=O)c2csnn2)c2ccccc21 ; INHIBITION = 23.2%

Looking up COCCN1CCCC2(CCN(c3ncc(Cl)cc3Cl)C2)C1=O (stereo not given) , I see its INHIBITION listed as -5.8%

Memo: CCOC1CC2(CCN(C(C)=O)CC2)c2cc(F)ccc21 (stereo not given) , reported INHIBITION: -33.9%

----------
- Test system: Plasmodium berghei
- ASSAY PROTOCOL: Screen against P. berghei liver stage (PbLuc), transformed with Luciferase, at 10uM
- Assay type: functional, HepG2
- CONDITION NOTES: tested at 10 uM
Among all 69,000 compounds or so, about 8,600 (12%) showed an effect of 50% or more. The list comes from a sample in which strong results are over-represented; it also holds close analogues and randomly drawn compounds.
MEASURE: INHIBITION (%)
// note: answer is a bare numeric in %

# molecule O=C(CC1CCN(CCc2ccccc2)CC1)N1CCCOCC1 ; its INHIBITION = 33.2

Field INHIBITION (entry O[C@H]1CN(Cc2ccnc(N3CCCC3)n2)CC[C@@]12CCCO2 ) reads -14.2

Item: CC(=O)c1cc(C(=O)N2Cc3ccccc3OC3(CCOCC3)C2)cs1 | INHIBITION: -26.2

Noted for Cc1cc(C)n(CCN2CCOC(CNc3cccnn3)C2)n1 (centres undefined) : its INHIBITION reads -39.7

Notebook: Cc1nc(CN2CCCC(CCc3ccccc3C)C2)c[nH]1 (centres undefined) , INHIBITION read as 47.6

For this molecule ( CC(NC(=O)CNc1cc2c(cc1Cl)OCCO2)c1ccco1 (centres undefined) ), measured INHIBITION is -10.3

What the record says about COc1ccc(CNC(C)c2cn[nH]c2C)cc1 (centres undefined) : INHIBITION is 11.8

The molecule Cc1cnn(CC2CCCCN2C(=O)Cc2c(C)nn(C)c2C)c1 (centres undefined) showed INHIBITION equal to 7.08

Entry C/C=C(\C)CN1C[C@H](NC(=O)CN2CCCC2=O)[C@@H](c2ccc(C)o2)C1 , INHIBITION reported as 18.3

Lookup result for O=C(O)c1cc(-c2ccc3c(c2)OCO3)cc(S(=O)(=O)NC2CC2)c1 ; measured INHIBITION: 8.74

The measured INHIBITION associated with CC(=O)N1CCN([C@@H]2CC[C@@H](NC(=O)c3cc(C)cs3)[C@H]2O)CC1 reads 33.7

molecule CC(C)c1nn(C)cc1CNC1CCOc2ccccc21 (centres undefined) , INHIBITION observed: 31.8

Reported INHIBITION of CO[C@@H]1CCN(Cc2ccc(C)o2)[C@H]1Cc1ccccc1 : 3.88

get_value(item= Cc1cn2c(n1)CCC(NS(=O)(=O)c1ccc(C)s1)C2 (centres undefined) , readout=INHIBITION) returns 34.4

# molecule Cc1nc(CN2CCCC(CCNS(C)(=O)=O)C2)c[nH]1 (centres undefined) ; its INHIBITION = -1.53

INHIBITION for CN(C)C(=O)N1CCC2(CCCN(CCOc3ccccc3)C2)C1 (centres undefined) is -44.2

INHIBITION in this record for Cc1cnn(CCNCC(=O)N(C)C(C)c2ccccc2)c1 (centres undefined) : 19.7

For reference, reported INHIBITION for O=C(N1CCCC1)N1CCC2(CCCN(CCOc3ccccc3)C2)C1 (centres undefined) stands at 69.9

Lab note: measured INHIBITION of Fc1ccc(CCC2CCCN(Cc3c[nH]cn3)C2)c(F)c1 (centres undefined) was 71.2

Quick note, INHIBITION for O=C(O)c1cc(-c2ccoc2)cc(S(=O)(=O)NC2CC2)c1 landed at 27.6

// field: INHIBITION; key: CSc1[nH]c(=O)c(C(=O)N2CCCC2c2cccs2)cc1C#N (centres undefined) ; value = 53.3

O=C(O)CCC(=O)Nc1nn(Cc2ccccc2Cl)cc1Cl yielded INHIBITION of 19.3

So for Cc1nc(CN2CCCC(CCc3ccc(F)c(F)c3)C2)c[nH]1 (centres undefined) , the logged INHIBITION turned out to be 55.7

The measured INHIBITION associated with CCC1CCCCCN1C(=O)c1cc(C#N)c(SC)[nH]c1=O (centres undefined) reads 49.9

Attribution: ChEMBL document CHEMBL4513216
